Tested on: RXRa DBDmut IVT, anti-RXR (DBD mutation: RXRa K156A/R161A, NR concentration 90 nM)
ASSAY DETAILS: PBM binding z-score (relative to random genomic background probes); higher = stronger binding; sequences stand for … in GC…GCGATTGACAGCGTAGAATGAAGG
VALUE TYPE: PBM binding z-score

The reported value for "ATACCAAGGTGATCGTGAGGTGGTTGATACTAAC" in terms of PBM binding z-score is -0.212

The recorded PBM binding z-score for "TCTCGGAGGAGACGAAGGTCAGAGCTTTCCAGAG" is -0.234

Lab book: PBM binding z-score of "TCGAGTAGGTTACAAATGGGGCATTCAGCTTTCT" noted as 0.884

Lab note: measured PBM binding z-score of "CGAACGAGGGCATGAGTTGAAAGCAAATGCCGAT" was 2.22

So, "CCTACTGGCCCAAAGGTCATTGATTCCAATGCTC" ? Its PBM binding z-score was 1.06

So for "CCTGCTAGGTTAATGGTCAGCTAAAGCAGCTCGC" , the logged PBM binding z-score turned out to be 0.452

So for "CCATACGGGTCACTGACAGGTTATAGCATTTGGA" , the logged PBM binding z-score turned out to be 1.24

Per the record, "CCCTACGGGTCACTCCAGGTTATAGCATCGGAGT" has PBM binding z-score of 0.434

Recorded result, "CAAACTAGGCCACAGAGGTCAAAGTCCGTGCGTA" , PBM binding z-score: 2.16

Reported PBM binding z-score of "CCTACTGGGCCATTCAGATGTCATTGATCATATG" : 0.148

Summary for this sequence, "AGAATGAGGTTACCAAGGATCAGGGAAACGCTTG" : PBM binding z-score is 0.704

// PBM binding z-score lookup, sequence = "ATATGTAGGTTACATCCGGGTCACTCAGGCTATG" , result: 0.745
